Tested on: human maximum recommended daily dose, FDA database
Test: DSSTox (FDAMDD) FDA Maximum (Recommended) Daily Dose Database
Details: TherapeuticCategory: androgen; active compounds read low
The label 1.0 is reserved for maximum recommended daily dose (mmol/kg-bw/day) strictly under 0.001; 0.0 covers values equal to or above it.

>  <ITEM_SMILES>
C[C@]12COC(=O)C[C@@H]1CC[C@@H]1[C@@H]2CC[C@@]2(C)[C@H]1CC[C@]2(C)O

>  <CLASS_ASSIGNMENT>
0.0

$$$$
>  <ITEM_SMILES>
C[C@]12C=CC(=O)C=C1CC[C@@H]1[C@@H]2CC[C@@]2(C)[C@H]1CC[C@]2(C)O

>  <CLASS_ASSIGNMENT>
1.0

$$$$
>  <ITEM_SMILES>
CC(=O)O[C@H]1CC[C@@]2(C)C(=CC[C@@H]3[C@@H]2CC[C@]2(C)C(=O)CC[C@@H]32)C1

>  <CLASS_ASSIGNMENT>
0.0

$$$$
>  <ITEM_SMILES>
CC(C)(C#N)c1cc(Cn2cncn2)cc(C(C)(C)C#N)c1

>  <CLASS_ASSIGNMENT>
1.0

$$$$
>  <ITEM_SMILES>
C[C@]12CC[C@H](O)CC1=CC[C@@H]1[C@@H]2CC[C@]2(C)C(=O)CC[C@@H]12

>  <CLASS_ASSIGNMENT>
0.0

$$$$
>  <ITEM_SMILES>
CC[C@]1(O)CC[C@H]2[C@@H]3CCC4=CC(=O)CC[C@@H]4[C@H]3CC[C@@]21C

>  <CLASS_ASSIGNMENT>
0.0

$$$$
>  <ITEM_SMILES>
C[C@]1(O)CC[C@H]2[C@@H]3CCC4=CC(=O)CC[C@@H]4[C@H]3CC[C@@]21C

>  <CLASS_ASSIGNMENT>
0.0

$$$$

----------
Tested on: human maximum recommended daily dose, FDA database
Assay: DSSTox (FDAMDD) FDA Maximum (Recommended) Daily Dose Database
Conditions: TherapeuticCategory: thyroid inhibitor; active compounds read low
Collected maximum recommended daily dose (mmol/kg-bw/day) values appear next to each entry.
READOUT_TYPE: maximum recommended daily dose (mmol/kg-bw/day)

>  <ITEM_SMILES>
O=c1[nH]c(=S)[nH]cc1I

>  <DATA_VALUE>
0.0197

$$$$
>  <ITEM_SMILES>
CCOC(=O)n1ccn(C)c1=S

>  <DATA_VALUE>
0.00537

$$$$
>  <ITEM_SMILES>
Cc1cc(=O)[nH]c(=S)[nH]1

>  <DATA_VALUE>
0.0703

$$$$

----------
Test system: human maximum recommended daily dose, FDA database
Experiment: DSSTox (FDAMDD) FDA Maximum (Recommended) Daily Dose Database
Details: TherapeuticCategory: chelating agent; treatmemt of Wilson's disease; active compounds read low
READOUT_TYPE: maximum recommended daily dose (mmol/kg-bw/day)

>  <ITEM_SMILES>
NCCNCCNCCN

>  <MEASURED_ON>
human maximum recommended daily dose, FDA database

>  <DATA_VALUE>
0.228

$$$$

----------
Readings of maximum recommended daily dose (mmol/kg-bw/day) for the listed compounds
Test system: human maximum recommended daily dose, FDA database
Test: DSSTox (FDAMDD) FDA Maximum (Recommended) Daily Dose Database
Conditions: TherapeuticCategory: analgesic; antipyretic; anti inflammatory; active compounds read low
READOUT_TYPE: maximum recommended daily dose (mmol/kg-bw/day)

>  <COMPOUND>
CC(=O)Oc1ccccc1C(=O)O

>  <MEASURED_ON>
human maximum recommended daily dose, FDA database

>  <DATA_VALUE>
0.37

$$$$
>  <COMPOUND>
CCCCC(C(=O)O)C(=O)N(Nc1ccccc1)c1ccccc1 (stereo not given)

>  <MEASURED_ON>
human maximum recommended daily dose, FDA database

>  <DATA_VALUE>
0.0337

$$$$
>  <COMPOUND>
C=CCOc1ccc(CC(=O)O)cc1Cl

>  <MEASURED_ON>
human maximum recommended daily dose, FDA database

>  <DATA_VALUE>
0.00737

$$$$
>  <COMPOUND>
CC(=O)Nc1ccc(OC(=O)c2ccccc2OC(C)=O)cc1

>  <MEASURED_ON>
human maximum recommended daily dose, FDA database

>  <DATA_VALUE>
0.425

$$$$
>  <COMPOUND>
CCOC(=O)c1c(N)sc2c1CCN(Cc1ccccc1)C2

>  <MEASURED_ON>
human maximum recommended daily dose, FDA database

>  <DATA_VALUE>
0.0158

$$$$
